Origin of measurements: ChEMBL document CHEMBL5303300

system: HEK-293T; experiment: Multiplex assay against HEK293T; type: toxicity, cell-based; settings: human, 48 h, 1 µM, compound concentration 1 uM, number of replicates 2
Catalogue of compounds with associated Population Normal (%)
In your response, put the unit directly after the numeric value.

Q) What value of measured Population Normal (%) is listed for CC(C)N1CCN(Cc2cnc(-c3cc(-c4cccc5[nH]ccc45)cc4[nH]ncc34)o2)CC1 [NEMIRALISIB] ?
A) 89%

Q) Try this compound next: NC(=O)c1ccc(-c2nc(-c3ccc4c(c3)OCCO4)c(-c3ccccn3)[nH]2)cc1
A) 89%

Q) Try this compound next: COc1ccc(F)c(F)c1C(=O)c1cnc(NC2CCN(S(C)(=O)=O)CC2)nc1N [RG-547]
A) 94%

Q) Try this compound next: CC1=C(C)C(=O)C(C(CCCCCC(=O)O)c2ccccc2)=C(C)C1=O (centres undefined) [SERATRODAST]
A) 91%

* * *

Catalogue of compounds with associated Population Mitochondria Different-Phenotype (%)
tested on: U2OS; experiment: Multiplex assay against U2OS; type: toxicity, cell-based; details: human, 48 h, 10 µM, compound concentration 10 uM, number of replicates 2
Report the figure in % without appending any unit label.

>>> measured_value("Cl.Clc1ccc2nsnc2c1NC1=NCCN1 [TIZANIDINE HYDROCHLORIDE]")
0
>>> measured_value("CSc1cc2c(cc1C(F)(F)F)N(C(=O)Nc1cccnc1)CC2")
0
>>> measured_value("CC1=C(C)C(=O)C(C(CCCCCC(=O)O)c2ccccc2)=C(C)C1=O (stereo unspecified) [SERATRODAST]")
0
>>> measured_value("COc1ccncc1C(=O)NC(=O)Nc1ccc(-c2ccccc2)c(C(F)(F)F)c1")
0

Q) What value of measured Population Mitochondria Different-Phenotype (%) is listed for CC(C)c1c(NC(=O)Nc2ccc(Cl)cc2)c(=O)n(-c2ccccc2)n1C ?
A) 0

Q) Try this compound next: Cc1ccc2c(N)c(C(=O)NC3CCc4cc(N5CC6CCC(C5)N6)ccc4C3)sc2n1.O=CO (stereo unspecified)
A) 84

* * *

Catalogue of compounds with associated Population Healthy Nuclei (%)
tested on: HEK-293T; assay: Multiplex assay against HEK293T; assay type: toxicity, cell-based; conditions: human, 12 h, 1 µM, compound concentration 1 uM, number of replicates 2
*1 amine or outer side, *2 acyl side, *3 side chain or, on linkers, in order; H or OH if unused. Where a SMILES comes first, the peptide text is derived from it. Bridges are numbered along the chain shown (N, C = ends). Roman numbers before positions name the chains, in order. [ ]: non-standard residue; d: D form. Hexamethylenediamine = C(CCCN[*:2])CCN[*:1]; Dip = N[C@H](C(=O)O)C(c1ccccc1)c1ccccc1; Chg = N[C@H](C(=O)O)C1CCCCC1; NMeA = CN[C@@H](C)C(=O)O
Report the figure in % without appending any unit label.

>>> measured_value("C=CC(=O)Nc1cccc(C)c1Nc1ncc2cc(-c3c(Cl)c(OC)cc(OC)c3Cl)ccc2n1")
87
>>> measured_value("COc1ccccc1-c1cc(Nc2cccc(CS(N)(=O)=O)c2)ncn1")
85
>>> measured_value("CN[C@@H](C)C(=O)N[C@H](C(=O)N1CCC[C@H]1C(=O)N[C@H](C(=O)NCCCCCCNC(=O)[C@@H](NC(=O)[C@@H]1CCCN1C(=O)[C@@H](NC(=O)[C@H](C)NC)C1CCCCC1)C(c1ccccc1)c1ccccc1)C(c1ccccc1)c1ccccc1)C1CCCCC1 (I: H-[NMeA][Chg]P[Dip] / II: H-[NMeA][Chg]P[Dip]; linker I:C-II:C via Hexamethylenediamine)")
85

Next compound, please.
Q) Identify the measured Population Healthy Nuclei (%) of CCN(CC)C/C=C/C(=O)Nc1cc2c(Nc3ccc(F)c(Cl)c3)ncnc2cc1OCC1CC1 for HEK-293T.
A) 79

* * *

tested on: U2OS; assay: Multiplex assay against U2OS; format: toxicity, cell-based; details: human, 48 h, 10 µM, compound concentration 10 uM, number of replicates 2
Catalogue of molecules with associated Population Hoechst High Intensity Objects (%)

Consider the worked cases shown below.
>>> measured_value("CS(=O)(=O)c1ccc(C(=O)Nc2ccc(F)c(COc3ccc(Br)cc3CNCCO)c2)c(Cl)c1.O=CO")
"0%"
>>> measured_value("O=C1Nc2ccc(C(=O)c3ccco3)cc2C1=Cc1cc(Cl)c(O)c(Cl)c1 [GW406108X]")
"0%"

Next molecule, please.
Q) What value of measured Population Hoechst High Intensity Objects (%) is listed for NC(=O)c1ccc(-c2nc(-c3ccc4c(c3)OCCO4)c(-c3ccccn3)[nH]2)cc1 ?
A) 0%

* * *

tested on: HEK-293T; assay: Multiplex assay against HEK293T; assay type: toxicity, cell-based; details: human, 48 h, 1 µM, compound concentration 1 uM, number of replicates 2
measure-name: Population Mitotic Cells (%)
Report the figure in % without appending any unit label.

Consider the worked cases shown below.
>>> measured_value("C=CC(=O)Nc1cccc(C)c1Nc1ncc2cc(-c3c(Cl)c(OC)cc(OC)c3Cl)ccc2n1")
87
>>> measured_value("CCN1C(=O)N(c2c(F)c(OC)cc(OC)c2F)Cc2cnc3[nH]c(CN4CCOCC4)cc3c21 [PEMIGATINIB]")
82
>>> measured_value("COC(=O)Nc1nc2c(s1)-c1c(c(-c3cccnc3)nn1-c1ccc(C3(N(C)C)CC3)cc1)CC2.Cl.Cl")
37

Next compound, please.
Q) Identify the measured Population Mitotic Cells (%) of CCN(CC)C/C=C/C(=O)Nc1cc2c(Nc3ccc(F)c(Cl)c3)ncnc2cc1OCC1CC1 for HEK-293T.
A) 69

* * *

Catalogue of compounds with associated Population Membrane Permeable-Phenotype (%)
tested on: HEK-293T; assay: Multiplex assay against HEK293T; type: toxicity, cell-based; settings: human, 24 h, 1 µM, compound concentration 1 uM, number of replicates 2
Report the figure in % without appending any unit label.

>>> measured_value("CSc1cc2c(cc1C(F)(F)F)N(C(=O)Nc1cccnc1)CC2")
2

Q) Identify the measured Population Membrane Permeable-Phenotype (%) of COc1ccc2cc(S(=O)(=O)N[C@H](CC(=O)N[C@H](Cc3ccc(CN4[C@H](C)CCC[C@@H]4C)cc3)C(=O)N(C)C(C)C)c3ccc4c(c3)OCO4)ccc2c1.Cl for HEK-293T.
A) 4

Q) Try this compound next: O=C1NC(=O)C(c2ccccc2[N+](=O)[O-])=C1Nc1ccc(O)c(Cl)c1
A) 2

Q) Try this compound next: CN1CCc2cc(Nc3ncc(C(F)(F)F)c(NCc4cc[nH]n4)n3)ccc2C1
A) 0

* * *

Catalogue of compounds with associated Population Healthy Nuclei (%)
tested on: HEK-293T; assay: Multiplex assay against HEK293T; format: toxicity, cell-based; details: human, 48 h, 1 µM, compound concentration 1 uM, number of replicates 2
Report the figure in % without appending any unit label.

Consider the worked cases shown below.
>>> measured_value("CCN(CC)C/C=C/C(=O)Nc1cc2c(Nc3ccc(F)c(Cl)c3)ncnc2cc1OCC1CC1")
84
>>> measured_value("COc1ccc(F)c(F)c1C(=O)c1cnc(NC2CCN(S(C)(=O)=O)CC2)nc1N")
86

Q) What value of measured Population Healthy Nuclei (%) is listed for COc1ccncc1C(=O)NC(=O)Nc1ccc(-c2ccccc2)c(C(F)(F)F)c1 ?
A) 85

Q) Try this compound next: CN1CCc2cc(Nc3ncc(C(F)(F)F)c(NCc4cc[nH]n4)n3)ccc2C1
A) 79

* * *

system: Fibroblast; assay: Multiplex assay against human fibroblast; assay type: toxicity, cell-based; details: 48 h, 10 µM, compound concentration 10 uM, number of replicates 2
Catalogue of compounds with associated Population Mitochondria Different-Phenotype (%)
In your response, put the unit directly after the numeric value.

>>> measured_value("Cl.Clc1ccc2nsnc2c1NC1=NCCN1 [TIZANIDINE HYDROCHLORIDE]")
"0%"

Q) What value of measured Population Mitochondria Different-Phenotype (%) is listed for CC(C)c1c(NC(=O)Nc2ccc(Cl)cc2)c(=O)n(-c2ccccc2)n1C ?
A) 0%

Q) Try this compound next: CC1=C(C)C(=O)C(C(CCCCCC(=O)O)c2ccccc2)=C(C)C1=O (stereo unspecified)
A) 0%

Q) Try this compound next: CSc1cc2c(cc1C(F)(F)F)N(C(=O)Nc1cccnc1)CC2
A) 0%

* * *

test system: HEK-293T; test: Multiplex assay against HEK293T; format: toxicity, cell-based; conditions: human, 48 h, 1 µM, compound concentration 1 uM, number of replicates 2
measure-name: Population Hoechst High Intensity Objects (%)
In your response, put the unit directly after the numeric value.

Consider the worked cases shown below.
>>> measured_value("CC1=C(C)C(=O)C(C(CCCCCC(=O)O)c2ccccc2)=C(C)C1=O (configuration not stated) [SERATRODAST]")
"8%"
>>> measured_value("COc1ccc(F)c(F)c1C(=O)c1cnc(NC2CCN(S(C)(=O)=O)CC2)nc1N [RG-547]")
"5%"
>>> measured_value("COc1ccncc1C(=O)NC(=O)Nc1ccc(-c2ccccc2)c(C(F)(F)F)c1")
"9%"
>>> measured_value("O=C(Nc1ccnc(NC(=O)C2CC2)c1)c1c(Cl)cccc1Cl")
"7%"
>>> measured_value("COc1cc(N(C)c2ccnc3ccc(C(F)(F)F)cc23)cc(OC)c1OC")
"7%"

Q) Identify the measured Population Hoechst High Intensity Objects (%) of CC(C)N1CCN(Cc2cnc(-c3cc(-c4cccc5[nH]ccc45)cc4[nH]ncc34)o2)CC1 [NEMIRALISIB] for HEK-293T.
A) 10%

Q) Try this compound next: NC(=O)c1ccc(-c2nc(-c3ccc4c(c3)OCCO4)c(-c3ccccn3)[nH]2)cc1
A) 10%
